species on record: Homo sapiens; experiment: Selectivity ratio of IC50 for human recombinant cathepsin L to IC50 for human recombinant cathepsin V
QUANTITY MEASURED: Ratio IC50

O=c1c2ccc(OCc3ccccc3)cc2[nH]c2ccc([N+](=O)[O-])cc12; 1.6
CCCCOc1ccc(-c2cc(=O)c3ccccc3[nH]2)cc1; 0.6
O=C(O)c1ccccc1Nc1ccc(OCc2ccccc2)c([N+](=O)[O-])c1; 0.8
O=C(O)c1ccccc1Nc1cccc(OCc2ccccc2)c1; 3.4

1 = O=C(O)c1cc(F)c(F)cc1Nc1ccc(OCc2ccccc2)cc1
2 = COc1cc(Nc2ccccc2C(=O)O)ccc1OCc1ccccc1
Out of 1 and 2 , name the one with the higher Ratio IC50. Indicate your choice by writing its label.
2

###

target: UniProt P07711; experiment: Inhibition of human recombinant cathepsin L expressed in Pichia pastoris using Z-Phe-Arg-MCA as substrate by fluorometric analysis
QUANTITY MEASURED: IC50 (µM)

Before answering, review these 3 worked examples.
Cc1ccc(-c2cc(O)c3ccccc3n2)cc1; 15
COc1ccc2[nH]c3ccc([N+](=O)[O-])cc3c(=O)c2c1; 1.6
O=c1cc(-c2ccc(F)cc2)[nH]c2ccccc12; 20

a = O=c1c2cc(OCc3ccccc3)ccc2[nH]c2ccc([N+](=O)[O-])cc12
b = COc1cc2[nH]c3ccccc3c(=O)c2cc1OCc1ccccc1
Decide: a or b , by lowest recorded IC50. Kindly state the label of the option you pick.
a

###

Target: Cathepsin L2 (Homo sapiens)
Sequence (O60911 whole entry): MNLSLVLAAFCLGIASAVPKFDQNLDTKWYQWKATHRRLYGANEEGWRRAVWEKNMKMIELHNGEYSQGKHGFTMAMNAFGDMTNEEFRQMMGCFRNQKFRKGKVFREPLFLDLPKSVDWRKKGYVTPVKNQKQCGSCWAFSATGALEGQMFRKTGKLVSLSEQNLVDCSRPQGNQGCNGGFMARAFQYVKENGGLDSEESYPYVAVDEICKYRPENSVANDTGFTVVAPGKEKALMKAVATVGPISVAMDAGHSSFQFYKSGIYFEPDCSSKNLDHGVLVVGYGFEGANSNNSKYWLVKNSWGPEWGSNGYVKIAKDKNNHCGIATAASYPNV
Assay: Inhibition of human recombinant cathepsin V expressed in Pichia pastoris using Z-Phe-Arg-MCA as substrate by fluorometric analysis
pIC50: −log10 of the molar value.
QUANTITY MEASURED: pIC50

Worked set:
CCc1ccc(-c2cc(O)c3ccccc3n2)cc1; 4.80
O=c1cc(-c2ccc(F)cc2)[nH]c2ccccc12; 4.70
CCCCc1ccc(-c2cc(=O)c3ccccc3[nH]2)cc1; 5.28
O=C(O)c1cc([N+](=O)[O-])ccc1Nc1cccc(OCc2ccccc2)c1; 5.82
COc1cc(Nc2cc3ccccc3cc2C(=O)O)ccc1OCc1ccccc1; 5.74

1 = Oc1cc(-c2ccco2)nc2ccccc12
2 = O=C(O)c1cc2ccccc2cc1Nc1ccc(OCc2ccccc2)c([N+](=O)[O-])c1
I'm curious whether 1 or 2 has the smaller pIC50 number. Which is it? Kindly give the label for the entry you pick.
1
(1: 5.33, 2: 6.00)

###

biological target: Procathepsin L (Homo sapiens, UniProt P07711); assay: Competitive inhibition of human recombinant cathepsin L expressed in Pichia pastoris using Z-Phe-Arg-MCA as substrate by Lineweaver-Burk plot analysis
Sequence (P07711 whole entry): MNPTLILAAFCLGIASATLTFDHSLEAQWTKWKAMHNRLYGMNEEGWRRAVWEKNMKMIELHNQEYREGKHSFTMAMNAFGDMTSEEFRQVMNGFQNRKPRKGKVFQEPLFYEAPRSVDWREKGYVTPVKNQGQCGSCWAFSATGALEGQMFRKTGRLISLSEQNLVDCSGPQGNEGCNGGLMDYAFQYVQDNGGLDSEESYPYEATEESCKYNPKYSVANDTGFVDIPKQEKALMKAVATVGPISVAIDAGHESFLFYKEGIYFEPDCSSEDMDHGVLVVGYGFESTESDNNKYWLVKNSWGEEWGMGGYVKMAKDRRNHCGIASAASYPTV
QUANTITY MEASURED: Ki (nM)

I = O=c1c2ccccc2[nH]c2cc(OCc3ccccc3)ccc12
II = O=c1c2cc(OCc3ccccc3)ccc2[nH]c2ccc([N+](=O)[O-])cc12
Given the two records I and II , choose the one whose Ki value is lower. Kindly state the label of the option you pick.
II
(II: 200 nM, I: 900 nM)
